Recorded T½ by entry
target.or.system: T1, mfPRLR.mmh (soluble monomeric macaca fascicularis PRLR) (macaca fascicularis)
T1 construct: soluble monomeric construct; also called macaca fascicularis (mf) PRLR.mmh
T1 chain: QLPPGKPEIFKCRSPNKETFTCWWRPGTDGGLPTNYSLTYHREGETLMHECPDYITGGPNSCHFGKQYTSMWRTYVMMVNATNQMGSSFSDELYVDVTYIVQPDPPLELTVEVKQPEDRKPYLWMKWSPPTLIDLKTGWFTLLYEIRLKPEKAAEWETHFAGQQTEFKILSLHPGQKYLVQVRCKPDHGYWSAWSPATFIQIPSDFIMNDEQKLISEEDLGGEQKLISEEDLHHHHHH
test.method.notes: SPR, 37C, mAb capture
The figure you give is taken to be in min; do not add the unit.

binder	T½ / min
H1H6793P (antibody, human IgG1, V domains shown, human IgG1 Fc (H1H)) VH: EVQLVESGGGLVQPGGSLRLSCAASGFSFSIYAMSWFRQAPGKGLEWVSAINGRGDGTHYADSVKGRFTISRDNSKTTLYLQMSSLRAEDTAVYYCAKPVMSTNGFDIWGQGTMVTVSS VL: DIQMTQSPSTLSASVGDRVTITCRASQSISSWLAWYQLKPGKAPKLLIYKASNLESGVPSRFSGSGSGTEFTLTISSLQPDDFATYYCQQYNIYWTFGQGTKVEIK	11

In: Name the reported T½ value associated with the binder H1H6804P (antibody, human IgG1, V domains shown, human IgG1 Fc (H1H)) VH: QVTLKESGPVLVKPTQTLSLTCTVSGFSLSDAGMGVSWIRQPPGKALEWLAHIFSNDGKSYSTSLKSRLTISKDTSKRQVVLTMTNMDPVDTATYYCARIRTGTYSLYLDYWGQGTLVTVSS VL: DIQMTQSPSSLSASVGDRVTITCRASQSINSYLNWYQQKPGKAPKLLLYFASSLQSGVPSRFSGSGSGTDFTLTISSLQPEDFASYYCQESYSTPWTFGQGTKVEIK
Out: 3

In: For H1H6790P (antibody, human IgG1, V domains shown, human IgG1 Fc (H1H)) VH: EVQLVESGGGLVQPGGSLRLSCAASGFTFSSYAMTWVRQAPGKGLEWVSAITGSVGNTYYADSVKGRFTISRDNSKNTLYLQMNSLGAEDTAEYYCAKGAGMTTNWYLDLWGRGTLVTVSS VL: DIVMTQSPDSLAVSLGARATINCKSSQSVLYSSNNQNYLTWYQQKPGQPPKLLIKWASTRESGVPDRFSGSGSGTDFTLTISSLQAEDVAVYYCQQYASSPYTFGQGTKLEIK then?
Out: 4
